- targetSystem: Caspase-8 (Homo sapiens, UniProt Q14790)
- Construct: p10 and p20 subunits (Thornberry, N. A. et al, Nature, 1992, 356, 768) were expressed in E. coli; made in house; host or cells: E. coli
- Sequence (Q14790 217-374 limits assumed, species assumed): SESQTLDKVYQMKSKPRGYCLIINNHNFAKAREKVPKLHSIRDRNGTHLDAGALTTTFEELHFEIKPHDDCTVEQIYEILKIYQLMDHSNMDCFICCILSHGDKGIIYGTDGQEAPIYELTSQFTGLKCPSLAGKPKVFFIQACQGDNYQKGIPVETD
- Sequence (Q14790 385-479 limits assumed, species assumed): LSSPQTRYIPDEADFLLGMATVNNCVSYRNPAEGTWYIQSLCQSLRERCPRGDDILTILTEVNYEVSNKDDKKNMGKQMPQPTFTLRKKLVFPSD
- assayInfo: Caspase inhibitory effect, fluorescent substrate AcDEVD-AFC
- Format: biochemical
- studyConditions: pH 7.5; 2.1 nM caspase-8, 50 μM AcDEVD-AFC, 25° C., pH 7.50; read-out: Caspase-8 Kobs/[I] (converted)
measurementType: kinact/KI (M⁻¹ s⁻¹)
Numbers only, in M⁻¹ s⁻¹.

Use these answered entries as a reference point.
{"compound": "CCC(C(=O)NC(CC(=O)O)C(=O)CF)c1ccnn(Cc2cccc(Br)c2)c1=O (stereo not shown) [Example 20]", "measurementType": "kinact/KI", "numericReadout": 18300}
{"compound": "CCC(C(=O)NC(CC(=O)O)C(=O)CF)c1ccnn(Cc2csc(C)n2)c1=O (stereo not shown) [Example 14]", "measurementType": "kinact/KI", "numericReadout": 14000}

Value sought for every listed compound: kinact/KI.
1. CCC(C(=O)NC(CC(=O)O)C(=O)CF)c1ccnn(CC2CCCCC2)c1=O (stereo not shown) [Example 16]
2. CCC(C(=O)NC(CC(=O)O)C(=O)CF)c1ccnn(Cc2cccc(C(F)(F)F)c2)c1=O (stereo not shown) [Example 22]

[12300, 14300]
